Reference source for all entries: patent US7786121B2

- EXPERIMENTAL_SYSTEM: 92 kDa gelatinase (MMP9) (Homo sapiens)
- Sequence (P14780 107-707 limits assumed): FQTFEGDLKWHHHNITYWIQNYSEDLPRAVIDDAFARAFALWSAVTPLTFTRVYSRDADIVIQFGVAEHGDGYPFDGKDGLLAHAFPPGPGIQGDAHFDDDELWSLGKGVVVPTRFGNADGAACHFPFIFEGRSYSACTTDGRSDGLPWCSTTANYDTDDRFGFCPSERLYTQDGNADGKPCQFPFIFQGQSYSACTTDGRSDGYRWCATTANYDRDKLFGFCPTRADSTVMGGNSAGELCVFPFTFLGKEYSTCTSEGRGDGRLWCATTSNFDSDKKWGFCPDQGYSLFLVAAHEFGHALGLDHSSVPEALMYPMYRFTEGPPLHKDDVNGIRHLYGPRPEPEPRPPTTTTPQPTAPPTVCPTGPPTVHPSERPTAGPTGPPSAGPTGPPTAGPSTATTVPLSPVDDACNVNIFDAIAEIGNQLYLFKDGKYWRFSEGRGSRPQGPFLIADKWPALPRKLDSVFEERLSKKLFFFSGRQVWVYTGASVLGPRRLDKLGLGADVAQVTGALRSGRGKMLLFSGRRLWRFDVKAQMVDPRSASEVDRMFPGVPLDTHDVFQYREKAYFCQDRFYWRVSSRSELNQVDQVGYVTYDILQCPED
- ASSAY: MMP9 enzyme inhibition assay, coumarin-labelled peptide substrate
- Assay type: biochemical
- EXPERIMENTAL_SETUP: recombinant human MMP-9, 37° C., 2 hours; read-out: MMP-9 (nM) inhibitory activity
Please go through the items and note down their IC50.

Before answering, review these 3 worked examples.
1) CCOc1ccc(CCC[C@@H](C(=O)N2CCN(Cc3ccccc3)CC2)[C@H](O)C(=O)NO)cc1 [Example 14] : < 100 nM
2) CCOc1ccc(CCC[C@@H](C(=O)N2CCN(c3ccccn3)CC2)[C@H](O)C(=O)NO)cc1 [Example 5] : < 100 nM
3) CCOc1ccc(CCC[C@@H](C(=O)N2CCN(c3ccccc3F)CC2)[C@H](OC)C(=O)NO)cc1 [Example 62] : < 100 nM

Task item: Any idea what IC50 was measured for CCOc1ccc(CCC[C@@H](C(=O)N2CCN(c3ccncc3)CC2)[C@H](O)C(=O)NO)cc1 [Example 6] ?
Reply: 100 to 1000 nM
